Source: the supplement of paper PMC10567573

B1: TRIM43 (parent)
chain: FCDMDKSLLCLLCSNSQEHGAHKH

- Variants of: B1
- methodNotes: protein stability index of a GFP-peptide fusion (GPS, HEK-293T) (PSI 1-6); higher = more stable;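 also: lentivirally expressed fusions sorted by FACS into six bins by GFP to DsRed ratio, PSI derived from sequencing read proportions per bin multiplied by bin number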
- testParameters: c terminus: a fixed tail appended
This section presents variants with their documented protein stability index values.
Answer with a number only.

Solved cases (10 shown):
[[record]]
mutation = "L9D"
measuredendpoint = "protein stability index"
observed = 2.78

[[record]]
mutation = "L11A"
measuredendpoint = "protein stability index"
observed = 2.21

[[record]]
mutation = "E18M"
measuredendpoint = "protein stability index"
observed = 1.83

[[record]]
mutation = "D5I"
measuredendpoint = "protein stability index"
observed = 3.01

[[record]]
mutation = "C2Y"
measuredendpoint = "protein stability index"
observed = 2.9

[[record]]
mutation = "L11R"
measuredendpoint = "protein stability index"
observed = 2.19

[[record]]
mutation = "G20R"
measuredendpoint = "protein stability index"
observed = 1.9

[[record]]
mutation = "S16E"
measuredendpoint = "protein stability index"
observed = 1.8

[[record]]
mutation = "K23F"
measuredendpoint = "protein stability index"
observed = 1.82

[[record]]
mutation = "L9A"
measuredendpoint = "protein stability index"
observed = 1.99


*Q* Which protein stability index is listed for `A21D` ?
*A* 2.08

*Q* Also check `Q17T`
*A* 1.61

*Q* Also check `S16P`
*A* 2.65

*Q* Also check `M4G`
*A* 1.96

*Q* Also check `F1H`
*A* 3.64

*Q* Also check `K23P`
*A* 2.06

*Q* Also check `E18P`
*A* 1.83

*Q* Also check `S14G`
*A* 2.26

*Q* Also check `D3Q`
*A* 2.07
